# Assay target: Macrophage migration inhibitory factor (Homo sapiens, UniProt P14174)
# Protocol notes: Inhibition of dopachrome tautomerase activity of MIF in human THP1 cells
# Type: cell-based, THP-1
Readout: log10 IC50 (log10 of the value in µM)
Record value = log10 of IC50 given in µM.

Below, 3 compounds whose answers are already recorded.
O=C1c2ccccc2C(=O)N1CCCC1CC(c2ccc(O)c(F)c2)=NO1 (stereo not drawn) ... 0.30
Cc1nc(C2CC(c3ccc(O)c(F)c3)=NO2)no1 (stereo not drawn) ... 1.78
Oc1ccc(C2=NOC(c3noc(C(F)(F)F)n3)C2)cc1F (stereo not drawn) ... 1.78

Let me check: COc1ccc(C2=NOC(c3noc(-c4cccc(OC)c4OC)n3)C2)cc1F (stereo not drawn) , system Macrophage migration inhibitory factor (Homo sapiens, UniProt P14174), measured log10 IC50 is 1.30

Param item: O=C(NCCC1CC(c2ccc(O)c(F)c2)=NO1)c1ccc(F)cc1 (stereo not drawn) ; param system: Macrophage migration inhibitory factor (Homo sapiens, UniProt P14174); output log10 IC50: 1.18

Test item O=C(NCCC1CC(c2ccc(O)c(F)c2)=NO1)C(F)(F)F (stereo not drawn) ; Macrophage migration inhibitory factor (Homo sapiens, UniProt P14174); reported log10 IC50 was 1.69

Macrophage migration inhibitory factor (Homo sapiens, UniProt P14174) log10 IC50 of CC(C)CC(=O)NCCC1CC(c2ccc(O)c(F)c2)=NO1 (stereo not drawn) is 1.46

# lookup: COc1ccc(C2=NOC(c3noc(C(F)(F)F)n3)C2)cc1F (stereo not drawn) on Macrophage migration inhibitory factor (Homo sapiens, UniProt P14174), log10 IC50 = 2.00

---

# Assay target: Macrophage migration inhibitory factor (Homo sapiens, UniProt P14174)
# Protocol notes: Inhibition of dopachrome tautomerase activity of human recombinant MIF
We begin with a simple list: items and their reported log10(IC50).
The common logarithm of IC50 in µM is what is listed.

// solved cases for log10(IC50) follow
O=C1c2ccccc2C(=O)N1CC1CC(c2ccc(O)c(F)c2)=NO1 (stereo not drawn) ... 1.56
O=C1c2ccccc2C(=O)N1CCCC1CC(c2ccc(O)c(F)c2)=NO1 (stereo not drawn) ... 0.85

Field log10(IC50) (entry COc1ccc(C2=NOC(c3noc(CCC(=O)NC4CCCCC4)n3)C2)cc1F (stereo not drawn) ) reads 0.98

Recorded log10(IC50) (molecule CC(C)CC(=O)NCCC1CC(c2ccc(O)c(F)c2)=NO1 (stereo not drawn) ): 1.34

The reported value for COc1ccc(C2=NOC(c3noc(-c4cccc(OC)c4OC)n3)C2)cc1F (stereo not drawn) in terms of log10(IC50) is 1.51

---

# Assay target: Macrophage migration inhibitory factor (Homo sapiens) (UniProt P14174)
# Protocol notes: Inhibition of MIF-induced TNFalpha production in human PBMC at 100 uM by ELISA
Readout: inhibition (%)
The figure you give is taken to be in %; do not add the unit.

O=C1CCC(=O)N1CCC1CC(c2ccc(O)c(F)c2)=NO1 (stereo not drawn) ... 39

inhibition on Macrophage migration inhibitory factor (Homo sapiens) (UniProt P14174) for Oc1ccc(C2=NOC(Cc3noc(C(F)(F)F)n3)C2)cc1F (stereo not drawn) is 34

Tested on Macrophage migration inhibitory factor (Homo sapiens) (UniProt P14174), the item CC(C)(C)C(=O)NCCC1CC(c2ccc(O)c(F)c2)=NO1 (stereo not drawn) showed inhibition equal to 40

Value (inhibition, Macrophage migration inhibitory factor (Homo sapiens) (UniProt P14174)) for record O=C1c2ccccc2C(=O)N1CCC1CC(c2ccc(O)c(F)c2)=NO1 (stereo not drawn) = 31

inhibition for Macrophage migration inhibitory factor (Homo sapiens) (UniProt P14174) with input COC(=O)CC1CC(c2ccc(O)cc2)=NO1 (stereo not drawn) equals 25

# lookup: CC(C)CC(=O)NCCC1CC(c2ccc(O)c(F)c2)=NO1 (stereo not drawn) on Macrophage migration inhibitory factor (Homo sapiens) (UniProt P14174), inhibition = 53

Observed inhibition, Macrophage migration inhibitory factor (Homo sapiens) (UniProt P14174), O=C(NCCC1CC(c2ccc(O)c(F)c2)=NO1)c1ccc(F)cc1 (stereo not drawn) : 56

Let me check: O=C(NCCC1CC(c2ccc(O)c(F)c2)=NO1)C(F)(F)F (stereo not drawn) , system Macrophage migration inhibitory factor (Homo sapiens) (UniProt P14174), measured inhibition is 53

---

# Assay target: Macrophage migration inhibitory factor (Homo sapiens)
# Protocol notes: Inhibition of spontaneous secretion/release/recognition of MIF from freshly isolated human PBMC by ELISA
# Test parameters: read-out: IC50
Readout: pIC50
FYI, pIC50 means -log10 of a concentration in mol per litre.

O=C1c2ccccc2C(=O)N1CCC1CC(c2ccc(O)c(F)c2)=NO1 (configuration not stated) ... 5.82
CC(C)(C)C(=O)NCCC1CC(c2ccc(O)c(F)c2)=NO1 (configuration not stated) ... 4.82
O=C1CCC(=O)N1CCC1CC(c2ccc(O)c(F)c2)=NO1 (configuration not stated) ... 4.70
O=C(NCCC1CC(c2ccc(O)c(F)c2)=NO1)C(F)(F)F (configuration not stated) ... 4.82
CC(C)CC(=O)NCCC1CC(c2ccc(O)c(F)c2)=NO1 (configuration not stated) ... 4.70

Value of pIC50 reported for the compound COc1ccc(C2=NOC(c3noc(CCC(=O)O)n3)C2)cc1F (configuration not stated) is 4.22

// recorded pIC50 for O=C(NCCC1CC(c2ccc(O)c(F)c2)=NO1)c1ccc(F)cc1 (configuration not stated) : 5.00

---

# Assay target: Macrophage migration inhibitory factor (Homo sapiens)
# Protocol notes: Inhibition of MIF-induced IL1-beta production in human PBMC at 100 uM by ELISA
inhibition values, listed per item
Answer with a number only, understood to be in %.

The examples below pair each entry with its known result.
COC(=O)CC1CC(c2ccc(O)cc2)=NO1 (stereo not drawn) ... 25
CC(C)CC(=O)NCCC1CC(c2ccc(O)c(F)c2)=NO1 (stereo not drawn) ... 58
O=C1c2ccccc2C(=O)N1CCC1CC(c2ccc(O)c(F)c2)=NO1 (stereo not drawn) ... 22
O=C(NCCC1CC(c2ccc(O)c(F)c2)=NO1)C(F)(F)F (stereo not drawn) ... 66
Oc1ccc(C2=NOC(Cc3noc(C(F)(F)F)n3)C2)cc1F (stereo not drawn) ... 46
O=C(NCCC1CC(c2ccc(O)c(F)c2)=NO1)c1ccc(F)cc1 (stereo not drawn) ... 52

Briefly, inhibition measured for CC(C)(C)C(=O)NCCC1CC(c2ccc(O)c(F)c2)=NO1 (stereo not drawn) : 50

The value of inhibition measured for the compound O=C1CCC(=O)N1CCC1CC(c2ccc(O)c(F)c2)=NO1 (stereo not drawn) turned out to be 27

---

# Assay target: Macrophage migration inhibitory factor (Homo sapiens)
# Sequence (whole entry): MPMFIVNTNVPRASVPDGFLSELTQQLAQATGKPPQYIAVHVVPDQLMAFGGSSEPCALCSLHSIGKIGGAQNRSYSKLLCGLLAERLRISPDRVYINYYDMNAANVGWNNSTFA
# Protocol notes: Inhibition of MIF-induced IL6 production in human PBMC at 100 uM by ELISA
Readout: inhibition
Write the figure, then the unit, nothing else.

Recorded inhibition, per entry:
Oc1ccc(C2=NOC(Cc3noc(C(F)(F)F)n3)C2)cc1F (stereo not drawn) ... 33%
O=C1c2ccccc2C(=O)N1CCC1CC(c2ccc(O)c(F)c2)=NO1 (stereo not drawn) ... 22%
COC(=O)CC1CC(c2ccc(O)cc2)=NO1 (stereo not drawn) ... 0%

Case O=C(NCCC1CC(c2ccc(O)c(F)c2)=NO1)c1ccc(F)cc1 (stereo not drawn) , Macrophage migration inhibitory factor (Homo sapiens), inhibition recorded as 54%

Tested on Macrophage migration inhibitory factor (Homo sapiens), the item O=C1CCC(=O)N1CCC1CC(c2ccc(O)c(F)c2)=NO1 (stereo not drawn) showed inhibition equal to 14%

Tested on Macrophage migration inhibitory factor (Homo sapiens), the item CC(C)(C)C(=O)NCCC1CC(c2ccc(O)c(F)c2)=NO1 (stereo not drawn) showed inhibition equal to 39%

Form field inhibition for item CC(C)CC(=O)NCCC1CC(c2ccc(O)c(F)c2)=NO1 (stereo not drawn) on Macrophage migration inhibitory factor (Homo sapiens): 47%

The reported inhibition value, Macrophage migration inhibitory factor (Homo sapiens), for O=C(NCCC1CC(c2ccc(O)c(F)c2)=NO1)C(F)(F)F (stereo not drawn) reads 49%

---

# Assay target: Macrophage migration inhibitory factor (Homo sapiens, UniProt P14174)
# Protocol notes: Inhibition of dopachrome tautomerase activity of MIF in human THP1 cells
# Format: cell-based, THP-1
Readout: pIC50
By convention, pIC50 is the negative base-10 log of a molar concentration.

Field: example entries. Status: answers known.
O=C1c2ccccc2C(=O)N1CCC1CC(c2ccc(O)c(F)c2)=NO1 (stereo not given) ... 6.30
CC(C)(C)C(=O)NCCC1CC(c2ccc(O)c(F)c2)=NO1 (stereo not given) ... 4.55
Oc1ccc(C2=NOC(c3noc(-c4cccc(O)c4O)n3)C2)cc1F (stereo not given) ... 4.72
COC(=O)CCc1nc(C2CC(c3ccc(O)c(F)c3)=NO2)no1 (stereo not given) ... 4.30
COc1ccc(C2=NOC(c3noc(CCC(=O)NC4CCCCC4)n3)C2)cc1F (stereo not given) ... 4.52

So for COc1ccc(C2=NOC(c3noc(CCC(=O)O)n3)C2)cc1F (stereo not given) , the logged pIC50 turned out to be 4.92

// field: pIC50; key: O=C1CCC(=O)N1CCC1CC(c2ccc(O)c(F)c2)=NO1 (stereo not given) ; value = 4.82

Summary for this compound, O=C(CCc1nc(C2CC(c3ccc(O)c(F)c3)=NO2)no1)NC1CCCCC1 (stereo not given) : pIC50 is 4.60

// pIC50 lookup, compound = O=C1c2ccccc2C(=O)N1CC1CC(c2ccc(O)c(F)c2)=NO1 (stereo not given) , result: 4.54
